system: P. falciparum stage V gametocytes; parameters: BacTiter-Glo ATP luminescence viability of purified stage V gametocytes in 384-well plates, per cent inhibition versus DMSO; details: 48 h, 5 µM; inhibitor
In all, about 13,000 compounds went through this assay and about 3,200 (25%) showed an effect of 50% or more. Some of the results follow.
readout: % Inhibition (%)
Value expressed in %; do not type the unit.

Enquiry: Param item = Cc1ccc(C(=O)NC2C(=O)NC2c2ccccc2)c(C)c1 (stereo not shown) [TCMDC-131386] ; retrieve measured % Inhibition.
Return: 4.246

Enquiry: Param item = COc1cc(NC2CCCC(NCc3cn(S(=O)(=O)c4ccccc4)c4ccccc34)C2)nc2ccccc12 (stereo not shown) [TCMDC-140505] ; retrieve measured % Inhibition.
Return: 77.87

Enquiry: Param item = COc1cc2nc(N3CCC(CNC(=O)c4ccc(-c5ccc(C#N)cc5C)cc4)CC3)nc(N)c2cc1OC [TCMDC-138735] ; retrieve measured % Inhibition.
Return: 105.2

Enquiry: Param item = Oc1ccc2nc(NCCCc3ccccc3)nc(NCCc3ccccc3)c2c1 [TCMDC-138406] ; retrieve measured % Inhibition.
Return: 91.92

Enquiry: Param item = CCn1c(SCc2ccccc2)nc2c1c(=O)[nH]c(=O)n2C [TCMDC-125734] ; retrieve measured % Inhibition.
Return: -6.834

Enquiry: Param item = CN(C)CCCNCc1cn(S(=O)(=O)c2ccccc2Cl)c2ccccc12 [TCMDC-136302] ; retrieve measured % Inhibition.
Return: 105.4

Enquiry: Param item = O=C(c1cccc(-c2ccc(-c3nc4cc(C(F)(F)F)ccc4[nH]3)cc2)c1)N1CCCCC1CN1CCC(O)C1 (stereo not shown) [TCMDC-132345] ; retrieve measured % Inhibition.
Return: -7.323

Enquiry: Param item = CCCNCc1ccc(-c2ccc(CN(CCOC)C(=O)CCC(=O)c3ccc(OC)c(F)c3)cc2)nc1 [TCMDC-141537] ; retrieve measured % Inhibition.
Return: 97.99

Enquiry: Param item = Brc1ccc(Nc2nc(NCC3CCCO3)c3ccccc3n2)cc1 (stereo not shown) [TCMDC-124563] ; retrieve measured % Inhibition.
Return: 15.52

Enquiry: Param item = NC1CCN(c2nc(NCCCc3ccc(O)cc3)nc(NCc3cccc4ccccc34)n2)CC1 [TCMDC-133393] ; retrieve measured % Inhibition.
Return: 0.2406

Enquiry: Param item = CC(O)C1CCCCN1C(=O)c1cccc(-c2ccc(-c3nc4cc(C(F)(F)F)ccc4[nH]3)cc2)c1 (stereo not shown) [TCMDC-132334] ; retrieve measured % Inhibition.
Return: -28.97

Enquiry: Param item = Oc1ccc2nc(Nc3ccccc3)nc(NCCc3ccccc3)c2c1 [TCMDC-138404] ; retrieve measured % Inhibition.
Return: 68.97

Enquiry: Param item = Cl.Oc1cccc(Nc2nc(NCC3CCCO3)c3ccccc3n2)c1 (stereo not shown) [TCMDC-123641] ; retrieve measured % Inhibition.
Return: -25.34

Enquiry: Param item = Oc1cccc(Nc2nc(NCc3ccccc3)c3ccccc3n2)c1 [TCMDC-125640] ; retrieve measured % Inhibition.
Return: 36.33

Enquiry: Param item = O=C(NC1CCCCC1)C1CCCN(C(=O)c2ccc(O)c(-c3ccc(Cl)c(Cl)c3)c2)C1 (stereo not shown) [TCMDC-140884] ; retrieve measured % Inhibition.
Return: 5.577

Enquiry: Param item = Nc1ncc(-c2ccc(Br)cc2)c(N)n1 [TCMDC-125524] ; retrieve measured % Inhibition.
Return: -3.505

Enquiry: Param item = O=c1cc(NCCCNCc2cn(S(=O)(=O)c3ccccc3)c3ccccc23)[nH]c2ccccc12 [TCMDC-140361] ; retrieve measured % Inhibition.
Return: 89.9

Enquiry: Param item = COc1cc(NCCCNCc2cn(S(=O)(=O)c3ccccc3)c3ccccc23)nc2ccccc12 [TCMDC-140214] ; retrieve measured % Inhibition.
Return: 73.5

Enquiry: Param item = CCOC(=O)NC1=NC(C)(C)N(OCc2cccc3c2ccc2ccccc23)C(NC(=O)OCC)=N1 [TCMDC-131339] ; retrieve measured % Inhibition.
Return: 9.295

Enquiry: Param item = Cl.Oc1ccc(Nc2nc(NCC3CCCO3)c3ccccc3n2)cc1 (stereo not shown) [TCMDC-123730] ; retrieve measured % Inhibition.
Return: 79.07

Enquiry: Param item = COc1cc(Nc2ccc3cc(S(=O)(=O)N4CCCCC4C)ccc3n2)cc(OC)c1OC (stereo not shown) [TCMDC-125163] ; retrieve measured % Inhibition.
Return: -47.67

Enquiry: Param item = OC(CNc1ccnc(Nc2ccc(Cl)cc2)n1)c1ccccc1C(F)(F)F (stereo not shown) [TCMDC-136579] ; retrieve measured % Inhibition.
Return: 19.1

Enquiry: Param item = COc1ccc(OC)c(-c2ccc(O)c(CNCC(C)c3ccccc3)c2)c1 (stereo not shown) [TCMDC-124647] ; retrieve measured % Inhibition.
Return: 7.623

Enquiry: Param item = Cc1noc(-c2ccccc2)c1CN1CCCC2(CC(C(=O)NCc3cccc(F)c3F)=NO2)C1 (stereo not shown) [TCMDC-136606] ; retrieve measured % Inhibition.
Return: -21.45

Enquiry: Param item = CC(C)c1ccc(NC(=O)c2ccc(C(=O)NC3CCN(Cc4ccsc4)C3)cc2)cc1 (stereo not shown) [TCMDC-136745] ; retrieve measured % Inhibition.
Return: -11.55

Enquiry: Param item = Oc1ccc2nc(NCCCc3ccccc3)nc(NCCCc3ccccc3)c2c1 [TCMDC-138382] ; retrieve measured % Inhibition.
Return: 90.22

Enquiry: Param item = Cc1cc(N2CCCCC2)nc2ccc(NC(=O)c3cc(=O)c4ccccc4o3)cc12 [TCMDC-123602] ; retrieve measured % Inhibition.
Return: 13.04

Enquiry: Param item = O=C(Nc1ccccc1)OCCOc1ccc(CC2SC(=O)NC2=O)cc1 (stereo not shown) [TCMDC-131642] ; retrieve measured % Inhibition.
Return: 13.3

Enquiry: Param item = Cc1cc(OCCCN2CCC(NS(=O)(=O)c3ccc(Cl)c(Cl)c3)CC2)c2ccccc2n1 [TCMDC-136278] ; retrieve measured % Inhibition.
Return: -51.1

Enquiry: Param item = CCCC(C)NC(=O)[C@H](Cc1ccccc1)NC(=O)c1ccc(O)c(-c2ccc(OC)cc2)c1 (stereo partly shown) [TCMDC-140800] ; retrieve measured % Inhibition.
Return: 19.41

Enquiry: Param item = COc1cccc(NC(=O)Nc2ccc(Nc3nc(C)cc(N4CCCC4)n3)cc2)c1 [TCMDC-124957] ; retrieve measured % Inhibition.
Return: -12.57

Enquiry: Param item = O=C(CCc1cccc(O)c1)NCC(NCCCNc1cc(=O)c2ccccc2[nH]1)c1cc(Br)cc(Br)c1 (stereo not shown) [TCMDC-140319] ; retrieve measured % Inhibition.
Return: -27.67

Enquiry: Param item = Cc1c(NCCCNCc2cc(Cl)cc(Cl)c2Cl)[nH]c2ccccc2c1=O [TCMDC-139498] ; retrieve measured % Inhibition.
Return: -59.03

Enquiry: Param item = CC(=O)Nc1cccc(C(=O)Nc2nc3ccc(-c4cc(=O)[nH]c(Nc5ccccc5Cl)n4)cc3[nH]2)c1 [TCMDC-135793] ; retrieve measured % Inhibition.
Return: -20.56
